Recorded pKi by entry
# Tgt: second (BD2: amino acids E352-E168) bromodomain of BRD4 (Homo sapiens, UniProt O60885)
# Construct: protocol
# Assay details: TR-FRET bromodomain binding assay, BRD4 BD2
# Setup conditions: TR-FRET assay protocol (A-G, compound concentration range); Ki calculated from IC50, probe Kd and probe concentration; read-out: TR-FRET Binding Ki: BRD4 (BDII_E352-M457)
Units for pKi: none; it is -log10 of a concentration expressed in mol/L.

Query smiles	Endpoint result
CC(=O)Nc1cccc(-c2cc(=O)n(C)nc2-c2ccccc2Oc2ccccc2)c1	6.03

Form field pKi for item "Cn1nc(-c2ccccc2Oc2ccccc2)c(-c2ccc(Cc3ccccc3)cc2)cc1=O" on second (BD2: amino acids E352-E168) bromodomain of BRD4 (Homo sapiens, UniProt O60885): 5.49

Form field pKi for item "COC(=O)CCc1cc(=O)n(C)nc1-c1ccccc1Oc1ccccc1" on second (BD2: amino acids E352-E168) bromodomain of BRD4 (Homo sapiens, UniProt O60885): 5.72

Form field pKi for item "CCOc1cc(=O)n(C)cc1-c1cc(NCCC(C)(C)C)ccc1Oc1ccc(F)cc1F" on second (BD2: amino acids E352-E168) bromodomain of BRD4 (Homo sapiens, UniProt O60885): 6.46
